Source of measurements: PubChem BioAssay

experiment: E. coli DRC41 culture turbidity changes, primary screen, E. coli filamentation inducer project, strain DRC41, OD650, 48 h (AID 1152);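 further: E. coli MC1000 strain DRC41 lacking acrAB efflux pump and sulA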; details: E. coli DRC41 (acrAB sulA), higher = more signal, called active from +8 up or from −8 down
Answer each item with its documented z-score.
One number for each entry.

Some compounds with recorded z-score:
                                   compound  result_value
0  CCc1cc2c(nc1CC)CCN(CCC(C)=NOC(C)CN1CCCCc3nc(C)c(C)cc31)C2 (stereo unspecified)         -1.74
1  CO[C@H]1COC(=O)CCC[C@H](C)[C@@H](OC)COC(=O)CC=C[C@@H]1C        0.0226
2  COc1ccc(COC(=O)NN=C2C[C@@H](O)[C@@H](O)[C@@H]3[C@@H]4C(=O)N(C5CCCCC5)C(=O)[C@@H]4CC[C@@H]23)cc1         -0.83
3  CC(=O)OC[C@H]1O[C@H](CC=NOC[C@@H](O)[C@H]2O[C@@H]3OC(C)(C)O[C@@H]3[C@H]2O)C=C[C@@H]1OC(C)=O         -1.11
4  Cc1ccc2[nH]c3nc(CCCn4ccnc4-c4ccccc4)nnc3c2c1         0.369
5  CC(C)=CCCC(C)=CCON=C1[C@H]2CCn3c(=O)n(-c4ccccc4)c(=O)n3[C@H]2[C@H](O)[C@@H]2O[C@H]12        -0.484

Batch of 7 compounds: report z-score for each.
1. COc1ccc2c(c1)O[C@@H](c1cccc(C(F)(F)F)c1)[C@H](O)C2=O
2. C=CC[C@@H]1C=C[C@H](ON=C(C)CCN2CCCCc3nc(C)c(C)cc32)[C@@H](CO)O1
3. COC(=O)[C@H](C)NC(=O)CCC1CC(OC(=O)NCc2cccc3ccccc23)CC2(CCCC(COC(=O)NCCc3ccccc3OC)O2)O1 (stereo partly specified)
4. COC(=O)[C@H](C)NC(=O)CCC1CC(OC(=O)NCc2ccc3c(c2)OCO3)CC2(CCCC(COC(=O)NCCCN3CCCC3=O)O2)O1 (stereo partly specified)
5. COC(=O)CC=C[C@@H](C)[C@@H](C=NOC[C@@H](O)COCc1ccco1)OC
6. C=CC[C@@H]1C=C[C@H](ON=C(C)CCN2CCCc3nc(C)c(C)cc32)[C@@H](CO)O1
7. CCOC(=O)NN=C1C[C@@H](O)[C@@H](O)[C@@H]2[C@@H]3C(=O)N(CC)C(=O)[C@@H]3CC[C@H]12

*A*
1. 0.706
2. -0.813
3. -0.731
4. -0.37
5. 0.245
6. 0.579
7. 0.539

Batch of 3 compounds: report z-score for each.
1. COc1ccc(O[C@H]2C=C[C@@H](c3ccccc3)O[C@@H]2CON=C2c3cc(OC)ccc3O[C@H](c3cccc(OC)c3)[C@H]2O)cc1
2. CCOC(=O)NN=C1C[C@@H](O)[C@@H](O)[C@@H]2[C@@H]3C(=O)N(C[C@@H]4CCCO4)C(=O)[C@@H]3CC[C@H]12
3. COC(=O)CC=C[C@@H](C)[C@@H](C=NOC[C@@H](O)COCc1ccco1)NS(=O)(=O)c1ccc(C)cc1

*A*
1: -1.41; 2: 0.138; 3: 0.132
